experiment: SK-BR-3 cell growth inhibitors, pilot screen, 24 h, human (AID 572); conditions: SK-BR-3 viability, CellTiter-Glo luminescence, at 10 µM, hits give low values;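 note: compound exposure lasted between 18 and 24 h rather than exactly 24 h; 100% = carrier-treated control wells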
endpointLabel: viability (%)
Kindly provide the numeric value in % only, without the unit symbol.

Answered examples (3):
| molecule | unitAnnotation | viability |
| --- | --- | --- |
| COc1ccc(NC(=O)CN2CCCCC2)cc1 | % | 108 |
| O=C(O)c1cc(=O)cc(C(=O)O)[nH]1 | % | 80.5 |
| O=C(c1ccco1)N(Cc1cc2ccccc2[nH]c1=O)C1CCCCC1 | % | 98.5 |

So for `Cn1c(=O)[nH]c(=O)c2c1nc(N(CCO)Cc1ccccc1)n2Cc1ccccc1Cl` , the logged viability turned out to be 90.5

The reported measurements were obtained from PubChem BioAssay.
